Every entry's value here was drawn from patent US20110212968A1.

Overview of reported pIC50 across a group of molecules:
# Tested Target: human orexin-2 receptor (Homo sapiens)
# Construct: expressed in transfected cells; host or cells: CHO (Chinese hamster ovary) cells, kept under G418 selection
# Sequence (O43614 1-444): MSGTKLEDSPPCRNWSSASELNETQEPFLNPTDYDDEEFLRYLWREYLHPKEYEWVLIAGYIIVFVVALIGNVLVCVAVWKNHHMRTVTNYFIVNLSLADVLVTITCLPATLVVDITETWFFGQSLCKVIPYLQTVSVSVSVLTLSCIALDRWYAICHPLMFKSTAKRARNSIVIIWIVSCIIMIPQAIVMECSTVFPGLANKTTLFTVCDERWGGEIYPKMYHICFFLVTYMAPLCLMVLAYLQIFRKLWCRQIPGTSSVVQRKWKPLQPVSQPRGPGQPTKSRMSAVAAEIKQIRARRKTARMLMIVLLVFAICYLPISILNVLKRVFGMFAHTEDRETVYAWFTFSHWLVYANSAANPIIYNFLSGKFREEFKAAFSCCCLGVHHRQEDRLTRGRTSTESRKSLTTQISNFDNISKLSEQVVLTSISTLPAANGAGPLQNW
# Procedure Details: Intracellular calcium measurement (FLIPR Tetra), orexin receptor antagonistic activity, OX2
# Format: cell-based
# Study Conditions: CHO cells expressing human orexin-2 receptor, 3 nM orexin-A, conditions B
# Method: The orexin receptor antagonistic activity of the compounds of formula (I) is determined in accordance with one of the following experimental methods. […] Within the Fluorescent Imaging Plate Reader (FLIPR Tetra, Molecular Devices), antagonists are added to the plate in a volume of 10 μl/well, incubated for 10 min and finally 10 μl/well of agonist is added. […] The calculated IC50 values of the compounds may fluctuate depending on the daily cellular assay performance. […]
Friendly reminder that pIC50 comes from taking -log10 of the concentration in mol/L.

In the examples that follow, each entry is paired with its recorded pIC50.
{"Structure Smiles": "CCN(CCc1ccc(OC)c(OC)c1)C(=O)c1nc(C)sc1-c1ccc(C)c(C)c1", "pIC50": 8.30}
{"Structure Smiles": "COc1ccc(CCN(CC2CC2)C(=O)c2ncccc2-c2cccc(C)c2)cc1OC", "pIC50": 8.40}
{"Structure Smiles": "COc1ccc(CCN(C)C(=O)c2nc(N)sc2-c2cccc(C)c2)cc1OC", "pIC50": 8.30}

Here is another molecule to look at.
Could you share which pIC50 value was measured for `CCc1nc(I)cn1CCN(CC1CC1)C(=O)c1nc(N)sc1-c1cccc(C)c1` ?
6.03
